Each recorded value in this set is attributed to patent US20240391954A1.

target: human MC4R (Homo sapiens, UniProt P32245); construct: host or cells: HEK-293 cells stably expressing the GScAMP22F split-luciferase cAMP sensor and hMC4R, G418 selection; test: split-luciferase cAMP sensor assay, agonist mode (measurement window 1), hMC4R; format: cell-based; conditions: HEK-293 cells stably expressing hMC4R, agonist mode; read-out: MC4R cAMP EC50
Sequence (P32245 whole entry): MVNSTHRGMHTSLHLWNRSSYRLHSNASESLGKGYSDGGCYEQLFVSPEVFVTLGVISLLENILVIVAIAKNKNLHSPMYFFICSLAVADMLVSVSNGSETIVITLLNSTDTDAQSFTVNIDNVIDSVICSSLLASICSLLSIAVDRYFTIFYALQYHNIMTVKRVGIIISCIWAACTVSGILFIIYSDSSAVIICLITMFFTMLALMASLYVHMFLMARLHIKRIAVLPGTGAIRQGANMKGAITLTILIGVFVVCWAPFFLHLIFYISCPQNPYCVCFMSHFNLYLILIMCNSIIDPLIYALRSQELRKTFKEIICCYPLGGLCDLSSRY
Positions of bridges follow the written chain, without caps; N, C: chain ends. Non-standard residues stand in square brackets, D forms with d. Residues, ends and D or L forms follow the SMILES beside them. Cit = NC(=O)NCCC[C@H](N)C(=O)O; Nle = CCCC[C@H](N)C(=O)O; Aib = CC(C)(N)C(=O)O
Item-by-item account of EC50

Challenge: Report EC50 on human MC4R (Homo sapiens, UniProt P32245) for this entry: C[C@H]1NC(=O)CSC[C@@H](C(N)=O)NC(=O)[C@H](Cc2ccccc2)NC(=O)[C@H](CCCNC(=N)N)NC(=O)[C@@H](Cc2ccccc2)NC(=O)[C@H](CCCNC(N)=O)NC1=O [CTX-1658] ({CH2CO}-[dA][Cit][dF]RFC-NH2; thioether N-6)
Response given: > 10000 nM

Challenge: Using human MC4R (Homo sapiens, UniProt P32245) as the test system, report measured EC50 of COc1ccc(C[C@H]2NC(=O)[C@H](CCCNC(=N)N)NC(=O)C(C)(C)NC(=O)[C@@H](NC(=O)[C@H](CCCNC(=N)N)NC(C)=O)CSSC[C@@H](C(N)=O)NC(=O)[C@H](Cc3ccccc3)NC(=O)[C@H](CCCNC(=N)N)NC2=O)cc1 [CTX-1298] (Ac-RC[Aib]R[dY](Me)RFC-NH2; disulfide 2-8 (inferred)) .
Response given: 3.3 nM

Challenge: Supply EC50 measured with human MC4R (Homo sapiens, UniProt P32245) for CC(=O)N[C@@H](CCCNC(=N)N)C(=O)N[C@H]1CSSC[C@@H](C(N)=O)NC(=O)[C@H](Cc2c[nH]c3ccccc23)NC(=O)[C@H](CCCNC(=N)N)NC(=O)[C@@H](Cc2ccccc2)NC(=O)[C@H](CCCNC(=N)N)NC(=O)[C@H](C)NC1=O [CTX-1267, Arg-cyclo(Cys-Ala-Arg-D-Phe-Arg-Trp-Cys)] (Ac-RCAR[dF]RWC-NH2; disulfide 2-8) .
Response given: 3 nM

Challenge: Report the value of EC50 obtained on human MC4R (Homo sapiens, UniProt P32245) for CC(=O)N[C@H]1CSSC[C@@H](C(N)=O)NC(=O)[C@H](Cc2c[nH]c3ccccc23)NC(=O)[C@H](CCCNC(=N)N)NC(=O)[C@@H](Cc2ccccc2)NC(=O)[C@H](Cc2c[nH]cn2)NC(=O)CNC1=O [CTX-1206, cyclo(Cys-Gly-His-D-Phe-Arg-Trp-Cys)] (Ac-CGH[dF]RWC-NH2; disulfide 1-7 (inferred)) .
Response given: 0.52 nM

Challenge: Quote EC50 with test system human MC4R (Homo sapiens, UniProt P32245) for CCCC[C@H](NC(=O)[C@H](CCCNC(=N)N)NC(C)=O)C(=O)N[C@H]1CSSC[C@@H](C(N)=O)NC(=O)[C@H](Cc2ccccc2)NC(=O)[C@H](CCCNC(=N)N)NC(=O)[C@@H](Cc2ccc(OC)cc2)NC(=O)[C@H](CCCNC(=N)N)NC1=O [CTX-1624] (Ac-R[Nle]CR[dY](Me)RFC-NH2; disulfide 3-8 (inferred))
Response given: 12 nM

Challenge: State EC50 on human MC4R (Homo sapiens, UniProt P32245). Entry: N=C(N)NCCC[C@@H]1NC(=O)[C@@H](Cc2ccccc2)NC(=O)[C@H](CCCNC(N)=O)NC(=O)CNC(=O)CSC[C@@H](C(N)=O)NC(=O)[C@H](Cc2ccccc2)NC1=O [CTX-1655] ({CH2CO}-G[Cit][dF]RFC-NH2; thioether N-6)
Response given: > 10000 nM

Challenge: Write down measured EC50 (human MC4R (Homo sapiens, UniProt P32245)) for this compound. CC(=O)N[C@H]1CSSC[C@@H](C(N)=O)NC(=O)[C@H](Cc2c[nH]c3ccccc23)NC(=O)[C@H](CCCNC(=N)N)NC(=O)[C@@H](Cc2ccccc2)NC(=O)[C@H](CCCNC(N)=O)NC(=O)[C@@H](C)NC1=O [CTX-1628, cyclo(Cys-D-Ala-Cit-D-Phe-Arg-Trp-Cys)] (Ac-C[dA][Cit][dF]RWC-NH2; disulfide 1-7 (inferred))
Response given: 14 nM
